# system: Dickkopf-related protein 1 (Homo sapiens) (UniProt O94907)
# Sequence (O94907 whole entry, looked up): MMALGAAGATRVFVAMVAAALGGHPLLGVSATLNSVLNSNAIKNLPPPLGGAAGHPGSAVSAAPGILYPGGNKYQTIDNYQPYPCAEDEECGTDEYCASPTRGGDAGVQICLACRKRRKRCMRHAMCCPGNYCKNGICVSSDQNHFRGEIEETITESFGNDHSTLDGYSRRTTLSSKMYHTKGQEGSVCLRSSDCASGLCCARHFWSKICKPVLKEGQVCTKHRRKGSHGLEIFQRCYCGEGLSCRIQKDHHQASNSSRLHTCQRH
# method_notes: DKK1 binders on small-molecule microarrays, primary screen, biochemical, small-molecule microarray, 635 nm fluorescence scan (AID 1106);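 also: score merges emission near 667 nm with signal to noise over three replicate slides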
# protocol_conditions: DKK1 binding, higher = more signal
composite z-score for assorted compounds
Just the number, please, no unit attached.

Worked cases, answers included:
Prompt line: Fill in the blank: the reported composite z-score of NC(=O)NCC#Cc1ccc2c(c1)[C@]1(C(=O)N2)[C@H](C(=O)Nc2nc3ccccc3s2)[C@H]2C(=O)O[C@H](c3ccccc3)[C@H](c3ccccc3)N2[C@@H]1c1ccc(O)cc1 is ____.
Response line: 0.246

Prompt line: // same read-out, input: CCN(CC)c1ccc(N2CC=CC34O[C@@H]5/C=C\CCC(C)OC(=O)C5[C@H]3C(=O)N(CCO)[C@@H]4C2=O)cc1 (some centres undefined)
Response line: -0.771

Prompt line: Then what about the compound COc1ccccc1CN1C(=O)c2ccccc2[C@@H](C(=O)NC(C)C)[C@@H]1c1ccc(CO)cc1 ?
Response line: 0.673

For the next question, use this compound.
Prompt line: I'd like to know its composite z-score. The compound in question is CCCCC(CC)C(O)C1C=CC2C(=O)N(c3ccccc3)C(=O)C2N1Nc1ccc([N+](=O)[O-])cc1 (centres undefined)
Response line: 0.155
